assay_system: Neuronal acetylcholine receptor; alpha3/beta4 (Rattus norvegicus) (UniProt P04757+P12392)
assay_text: Antagonist activity at rat alpha3beta4 nAChR expressed in xenopus oocytes assessed as inhibition of Ach- induced response at 10 uM at -70 mV holding potential preincubated for 5 mins followed by Ach stimulation by voltage-clamp based electrophysiological method
Format: cell-based
condition_details: Oocyte
Active and inactive are the calls of the source. The rule behind the calls is not given here. Where a SMILES comes first, the peptide text is derived from it. Bridges are numbered along the chain shown (N, C = ends).
measure_name: inhibition

molecule | value
C[C@@H]1NC(=O)[C@@H]2CSSC[C@H](NC(=O)CN)C(=O)N[C@@H](CSSC[C@@H](C(N)=O)NC(=O)[C@H](Cc3cnc[nH]3)NC(=O)[C@H](CCC(=O)O)NC(=O)[C@H](Cc3cnc[nH]3)NC1=O)C(=O)N[C@@H](CO)C(=O)N[C@@H](CC(N)=O)C(=O)N1CCC[C@H]1C(=O)N1CCC[C@H]1C(=O)N2 (H-GCCSNPPCAHEHC-NH2; disulfide 2-8, 3-13) | inactive
C[C@@H]1NC(=O)[C@@H]2CSSC[C@H](NC(=O)[C@@H](N)CCC(N)=O)C(=O)N[C@@H](CSSC[C@@H](C(=O)N[C@@H](CCCNC(=N)N)C(=O)O)NC(=O)[C@H](Cc3cnc[nH]3)NC(=O)[C@H](CCC(=O)O)NC(=O)[C@H](Cc3cnc[nH]3)NC1=O)C(=O)N[C@@H](CO)C(=O)N[C@@H](CC(N)=O)C(=O)N1CCC[C@H]1C(=O)N1CCC[C@H]1C(=O)N2 (H-QCCSNPPCAHEHCR-OH; disulfide 2-8, 3-13) | inactive
C[C@@H]1NC(=O)[C@@H]2CSSC[C@H](NC(=O)[C@@H](N)CCC(N)=O)C(=O)N[C@@H](CSSC[C@@H](C(N)=O)NC(=O)[C@H](Cc3cnc[nH]3)NC(=O)[C@H](CCC(=O)O)NC(=O)[C@H](Cc3cnc[nH]3)NC1=O)C(=O)N[C@@H](CO)C(=O)N[C@@H](CC(N)=O)C(=O)N1CCC[C@H]1C(=O)N1CCC[C@H]1C(=O)N2 (H-QCCSNPPCAHEHC-NH2; disulfide 2-8, 3-13) | inactive
